# study.target: Zap1 (UniProt P47043)
# Sequence: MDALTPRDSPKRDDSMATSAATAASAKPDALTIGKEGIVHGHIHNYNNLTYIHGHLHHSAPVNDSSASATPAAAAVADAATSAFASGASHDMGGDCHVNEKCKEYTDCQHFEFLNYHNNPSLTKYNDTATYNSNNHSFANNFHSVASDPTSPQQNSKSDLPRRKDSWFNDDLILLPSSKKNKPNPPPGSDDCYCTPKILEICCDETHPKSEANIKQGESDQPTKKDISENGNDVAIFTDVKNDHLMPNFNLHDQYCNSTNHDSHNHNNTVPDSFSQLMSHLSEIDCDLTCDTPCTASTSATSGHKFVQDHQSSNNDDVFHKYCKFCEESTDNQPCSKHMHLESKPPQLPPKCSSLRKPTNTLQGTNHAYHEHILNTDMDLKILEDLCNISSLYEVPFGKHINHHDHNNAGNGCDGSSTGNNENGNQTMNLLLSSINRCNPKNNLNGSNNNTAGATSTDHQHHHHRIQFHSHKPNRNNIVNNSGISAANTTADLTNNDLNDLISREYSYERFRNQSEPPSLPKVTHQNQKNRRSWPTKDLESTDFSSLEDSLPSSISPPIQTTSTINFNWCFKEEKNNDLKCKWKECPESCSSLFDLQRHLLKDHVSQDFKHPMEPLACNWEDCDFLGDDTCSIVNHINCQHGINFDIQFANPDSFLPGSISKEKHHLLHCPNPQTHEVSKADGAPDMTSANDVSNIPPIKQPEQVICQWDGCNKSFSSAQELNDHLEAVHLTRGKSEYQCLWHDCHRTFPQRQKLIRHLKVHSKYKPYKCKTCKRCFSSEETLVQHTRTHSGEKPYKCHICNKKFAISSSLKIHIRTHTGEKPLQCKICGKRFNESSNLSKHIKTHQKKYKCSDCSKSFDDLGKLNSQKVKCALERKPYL
# assay.comment: PBM E-score (8-mer binding enrichment) (E-score (-0.5 to 0.5)); higher = stronger / more preferred TF binding
# measurement.setup: protein concentration: 200 nM; construct: GST-full length
The full ranking holds about 33,000 sequences; the median of “E-score (-0.5 to 0.5)” is about -0.021, and the highest 2% start at about 0.32. Shown is part of a subset that was picked to be rich in the highest values.
Label 0 if PBM E-score falls below 0.06; label 1 in every other case.

Here's what some known entries look like.
ATGGTAAG; 0
ATGGGTCA; 1

I'd appreciate it if you could say whether CGAGCGTA has PBM E-score at least equal to 0.06. 0

I'd appreciate it if you could say whether GCCCTAGC has PBM E-score at least equal to 0.06. 0

I'd appreciate it if you could say whether CGGGTTAG has PBM E-score at least equal to 0.06. 1

I'd appreciate it if you could say whether CGGGTCAA has PBM E-score at least equal to 0.06. 1

I'd appreciate it if you could say whether CCAAGCCA has PBM E-score at least equal to 0.06. 0

# credit: the supplement of paper PMC3334620
